Experiment: Stability of the compound in DMEM medium assessed as compound remaining measured within 72 hrs by HPLC analysis
Type: physicochemical
Settings: read-out: Stability
MEASUREMENT TYPE: remaining at 72 h

INPUT: # input molecule: Cc1c2c(cc3nccnc13)C1=CC[C@@]3(C)[C@@H]4C[C@](C)(NC(=O)N5CCN(C6CCN(C)CC6)CC5)CC[C@]4(C)CC[C@]3(C)[C@]1(C)C=C2 ; wanted: its remaining at 72 h
OUTPUT: 95%

----------
Assay: Selectivity index, ratio of IC50 for antiproliferative activity against human L02 cells assessed as inhibition of cell growth to IC50 for antiproliferative activity against human MCF7 cells assessed as inhibition of cell growth
Type: toxicity, cell-based
Conditions: L02 cells versus MCF7 cells, read-out: Selectivity Index
MEASUREMENT TYPE: selectivity ratio
# print the numeric value only

{"COMPOUND STRUCTURE": "Cc1c2c(cc3nccnc13)C1=CC[C@@]3(C)[C@@H]4C[C@](C)(NC(=O)N5CCN(CCN(C)C)CC5)CC[C@]4(C)CC[C@]3(C)[C@]1(C)C=C2", "selectivity ratio": 1.61}
{"COMPOUND STRUCTURE": "Cc1c2c(cc3c1OCO3)C1=CC[C@@]3(C)[C@@H]4C[C@](C)(NC(=O)NCCN(C)C)CC[C@]4(C)CC[C@]3(C)[C@]1(C)C=C2", "selectivity ratio": 3.03}
{"COMPOUND STRUCTURE": "Cc1c2c(cc3c1OCO3)C1=CC[C@@]3(C)[C@@H]4C[C@](C)(NC(=O)N5CCNCC5)CC[C@]4(C)CC[C@]3(C)[C@]1(C)C=C2", "selectivity ratio": 2.03}
{"COMPOUND STRUCTURE": "Cc1c2c(cc3ncoc13)C1=CC[C@@]3(C)[C@@H]4C[C@](C)(NC(=O)N5CCN(CCO)CC5)CC[C@]4(C)CC[C@]3(C)[C@]1(C)C=C2", "selectivity ratio": 1.08}
{"COMPOUND STRUCTURE": "Cc1c2c(cc3nccnc13)C1=CC[C@@]3(C)[C@@H]4C[C@](C)(NC(=O)N5CCNCC5)CC[C@]4(C)CC[C@]3(C)[C@]1(C)C=C2", "selectivity ratio": 1.53}
{"COMPOUND STRUCTURE": "Cc1c2c(cc3ncoc13)C1=CC[C@@]3(C)[C@@H]4C[C@](C)(NC(=O)N5CCN(C)CC5)CC[C@]4(C)CC[C@]3(C)[C@]1(C)C=C2", "selectivity ratio": 2.58}

INPUT: # input compound: Cc1c2c(cc3nccnc13)C1=CC[C@@]3(C)[C@@H]4C[C@](C)(NC(=O)N5CCN(C)CC5)CC[C@]4(C)CC[C@]3(C)[C@]1(C)C=C2 ; wanted: its selectivity ratio
OUTPUT: 1.69

INPUT: # input compound: Cc1c2c(cc3ncoc13)C1=CC[C@@]3(C)[C@@H]4C[C@](C)(NC(=O)N5CCN(C6CCN(C)CC6)CC5)CC[C@]4(C)CC[C@]3(C)[C@]1(C)C=C2 ; wanted: its selectivity ratio
OUTPUT: 3.64

INPUT: # input compound: Cc1c2c(cc3c1OCO3)C1=CC[C@@]3(C)[C@@H]4C[C@](C)(NC(=O)N5CCN(CCN6CCOCC6)CC5)CC[C@]4(C)CC[C@]3(C)[C@]1(C)C=C2 ; wanted: its selectivity ratio
OUTPUT: 1.4
